Each recorded value in this set is attributed to patent US20250136677A1.

Let's look at some binders and their measured pKd.
Biological target: T1, wildtype feline IL-31 protein (Feline_IL31_wildtype) (feline)
T1 construct: Full length feline IL-31 with C-terminal His tag, secreted from ExpiCHO cells; also called fIL-31
T1 chain: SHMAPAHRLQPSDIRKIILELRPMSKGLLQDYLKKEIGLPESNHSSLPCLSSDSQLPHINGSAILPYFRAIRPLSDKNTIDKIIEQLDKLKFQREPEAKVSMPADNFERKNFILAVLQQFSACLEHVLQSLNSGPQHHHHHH
Experiment: SPR (Biacore), IL-31 on chip, 1:1 fit
pKd: −log10 of the molar value.

BINDER	pKd
Feline 15H05 2.1 (antibody, V domains shown, Feline heavy and kappa constant regions) VH: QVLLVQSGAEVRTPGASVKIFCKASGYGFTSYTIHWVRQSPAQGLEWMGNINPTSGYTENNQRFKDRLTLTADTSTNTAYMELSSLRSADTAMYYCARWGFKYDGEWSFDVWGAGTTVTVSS VL: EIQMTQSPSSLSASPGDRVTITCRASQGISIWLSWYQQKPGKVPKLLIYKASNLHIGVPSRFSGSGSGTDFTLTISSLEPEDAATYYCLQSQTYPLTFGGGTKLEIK	7.65
Feline 15H05 1.1 Y49N (antibody, V domains shown) VH: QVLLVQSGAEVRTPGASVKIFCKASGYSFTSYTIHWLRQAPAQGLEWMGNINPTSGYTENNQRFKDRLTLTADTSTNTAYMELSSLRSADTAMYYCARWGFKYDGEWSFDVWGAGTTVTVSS VL: EIQMTQSPSSLSASPGDRVTITCRASQGISIWLSWYQQKPGKVPKLLINKASNLHIGVPSRFSGSGSGTDFTLTISSLEPEDAATYYCLQSQTYPLTFGGGTKLEIK	7.40
Feline 15H05 VH2 mouse VL (antibody, V domains shown, also called felinized 15H05 VH2 with mouse 15H05 VL (heterochimera)) VH: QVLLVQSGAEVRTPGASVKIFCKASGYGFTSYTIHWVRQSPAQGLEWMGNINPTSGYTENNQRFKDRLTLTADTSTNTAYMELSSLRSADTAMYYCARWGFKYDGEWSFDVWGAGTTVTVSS VL: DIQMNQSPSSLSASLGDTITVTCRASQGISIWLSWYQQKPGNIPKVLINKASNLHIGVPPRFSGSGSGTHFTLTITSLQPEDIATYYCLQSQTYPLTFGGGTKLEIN	8.79
